# Test system: OVCAR-3
# EXPERIMENTAL_PROTOCOL: NCI tumour cell line growth inhibition, 48 h
Calls of active or inactive are those of the source. Rule as the data show it: active = GI50 up to about 1.1 µM and inactive = higher.
I would appreciate it if you answered using one of these outcomes: class 1 (active), class 0 (inactive)

Here are 8 compounds together with their reported answers.
Exam item: Recorded test call requested for "CCOC(=O)NC(=O)c1cn(CCSCCOC(=O)NCCCCCCNC(=O)OCCSCCn2cc(C(=O)NC(=O)OCC)c(=O)[nH]c2=O)c(=O)[nH]c1=O"
Marked response: class 0

Exam item: Recorded test call requested for "COc1cc(/C=N/n2c(-c3ccccc3)nn(C(C)=O)c2=O)cc(OC)c1OC"
Marked response: class 1

Exam item: Recorded test call requested for "O=C1NC2(NC(=O)C1=O)Nc1ccccc1S2"
Marked response: class 0

Exam item: Recorded test call requested for "CC1=C(C(=O)Nc2ccc(Cl)c(Cl)c2)C(c2ccco2)C(C(=O)Nc2ccc(Cl)c(Cl)c2)=C(C)N1"
Marked response: class 0

Exam item: Recorded test call requested for "CCOC(=O)C1(C(=O)OCC)CN(CC)CN(c2ccccc2)C1"
Marked response: class 0

Exam item: Recorded test call requested for "c1ccc2oc(-c3ccc(-c4nc5ccccc5o4)c4c3CC4)nc2c1"
Marked response: class 0

Exam item: Recorded test call requested for CCOC(=O)CNC(=O)C(CCC(=O)N(C)O)NC(=O)CCC(N)C(=O)O (centres undefined)
Marked response: class 0

Exam item: Recorded test call requested for COC(=O)C1CCC(=O)N1CN(C(C)=O)c1cc(OC)ccc1OC (centres undefined)
Marked response: class 0

Now let's try a different one.
Exam item: Recorded test call requested for COc1ccc(/C=C2\CN(C)CC3=C2OC(N)=C(C#N)C3c2ccc(OC)cc2)cc1 (centres undefined)
Marked response: class 0

----------
# Tested on: SF-268
# EXPERIMENTAL_PROTOCOL: NCI tumour cell line growth inhibition, 48 h
Activity calls are given as the source filed them. Rule as the data show it: active = GI50 up to about 1.1 µM and inactive = higher.
TEST_READOUT: GI50

Some compounds with known GI50 results, for comparison:
Exam item: Item "O=c1[nH]c2c(c(=O)[nH]1)SSC2" : provide GI50
Marked response: 3.67 µM (inactive)

Exam item: Item "COc1ccc(/N=C/c2ccc(N(CCC#N)S(=O)(=O)c3ccccc3)cc2)cc1" : provide GI50
Marked response: > 100 µM (inactive)

Exam item: Item CCCCOC(=O)C(=O)C(CCC(=O)c1ccc(C)cc1)C(=O)C=C(C)C (stereo unspecified) : provide GI50
Marked response: > 100 µM (inactive)

Exam item: Item "OCCCN=C1CCCCC1" : provide GI50
Marked response: > 100 µM (inactive)

Exam item: Item "COc1ccc([C@@H]2CC(=O)NCCCCNCCCN2)cc1" : provide GI50
Marked response: > 100 µM (inactive)

Next:
Exam item: Item CCCCCCCCCCCCCCCC(=O)ON1C(=S)NC(C)(c2ccccc2)C1=S (stereo unspecified) : provide GI50
Marked response: 73.6 µM (inactive)

----------
# System: K562
# EXPERIMENTAL_PROTOCOL: NCI tumour cell line growth inhibition, 48 h
The source made the active and inactive calls. Rule as the data show it: active = GI50 up to about 1.1 µM and inactive = higher.
I would appreciate it if you answered using one of these outcomes: active, inactive

Here are 3 compounds together with their reported answers.
Exam item: Recorded test call requested for "COC(=O)N/N=C(\C)c1c(O)cc(C)oc1=O"
Marked response: inactive

Exam item: Recorded test call requested for "CC1=CC(C)(C)Nc2ccc(CSc3ccccc3)cc21"
Marked response: inactive

Exam item: Recorded test call requested for "Nc1ccc(/C=C/c2ccnc3ccccc23)cc1"
Marked response: inactive

Next:
Exam item: Recorded test call requested for Cc1ccc2c(c1)C(=O)C1(Cc3ccccc3C1=O)C2 (stereo unspecified)
Marked response: inactive

Exam item: Recorded test call requested for COc1cc2c(cc1OC)C(OC)N(C)c1c-2ccc2cc3c(cc12)OCO3 (stereo unspecified)
Marked response: inactive

Exam item: Recorded test call requested for "O=S(=O)(O)c1ccc2c(/N=N/c3c(O)ccc4ccccc34)cccc2c1"
Marked response: inactive

Exam item: Recorded test call requested for "Cn1c(COC(=O)Nc2ccccc2)c(COC(=O)Nc2ccccc2)c2ccc3cc(Cl)c(Cl)cc3c21"
Marked response: active

Exam item: Recorded test call requested for CC1CC(NN(C)C)C2(C(N)=O)C(N)=NC(=O)C12C#N (stereo unspecified)
Marked response: inactive

Exam item: Recorded test call requested for COC1C=COC2(C)Oc3c(C)c(O)c4c(c3C2=O)/C(=N/C2CCC(O)OC2C)C=C(NC(=O)/C(C)=C\C(=O)C2CC2C(O)C(C)C(O)C(C)C(OC(C)=O)C1C)C4=O (stereo unspecified)
Marked response: inactive

Exam item: Recorded test call requested for "N#Cc1sc2c(c1OC(=O)c1ccc(Cl)cc1Cl)c(=O)n(-c1ccccc1)c(=S)n2-c1ccccc1"
Marked response: inactive

Exam item: Recorded test call requested for "CN(C)CCSc1nccc(-c2ccc(-c3ccnc(SCCN(C)C)n3)s2)n1"
Marked response: inactive

Exam item: Recorded test call requested for "COc1ccc(OC)c(CC(=O)c2ccc(O)c(C(=O)NCCc3ccc(F)cc3)c2)c1"
Marked response: inactive

Exam item: Recorded test call requested for "O=C(O)\C=C/C=C/C=C/C=C/C(=O)O"
Marked response: inactive

Exam item: Recorded test call requested for "c1ccc2oc(-c3ccc(-c4nc5ccccc5o4)c4c3CC4)nc2c1"
Marked response: inactive

Exam item: Recorded test call requested for "CC(C)S(=O)(=O)ON1C(=O)c2ccc([N+](=O)[O-])cc2C1=O"
Marked response: inactive
